Compiled literature pKi, tested on Adenosine receptor A1 (Rattus norvegicus, UniProt P25099).
pKi: −log10 of the molar value.

COMPOUND	CENSORING OPERATOR	pKi
CC(c1ccccc1)N1CCCn2c1nc1c2c(=O)n(C)c(=O)n1C (stereo not given)	≤	4.60
Nc1nc(NC[C@H]2CCCN2Cc2cccc(F)c2F)nc2nc(-c3ccco3)nn12	<	6.60
Cn1c(=O)c2c(nc3n2CCCN3CCOC(=O)Nc2ccccc2)n(C)c1=O	<	5.00
C[C@H](Cc1ccccc1)Nc1ncnc2c1ncn2CC(O)C(O)C(O)CO (stereo not given in full)	<	5.66
O=C(CCc1ccc(Cl)c(Cl)c1)Nc1nc2ccccc2c(=O)s1	<	5.82
O=C(Nc1nc(-c2ccccn2)cc2ccccc12)c1ccccc1	=	5.49
Cn1c(=O)c2[nH]c(-c3ccc(S(=O)(=O)Oc4cccc([N+](=O)[O-])c4)cc3)nc2n(C)c1=O	=	7.68
COC(=O)C(Cc1ccc(NC(=O)Cc2ccc(Nc3ncnc4c3ncn4C3O[C@H](CO)[C@@H](O)[C@H]3O)cc2)cc1)NC(=O)C(F)(F)F (stereo not given in full)	=	7.74
CSc1nc(NCc2cccc(I)c2)c2ncn(C[C@H](O)CO)c2n1	=	5.87
CCNC(=O)[C@H]1O[C@@H](n2cnc3c(NC(=O)Nc4ccc(OC)cc4)nc(C#Cc4ccccc4)nc32)[C@H](O)[C@@H]1O	=	5.32
Nc1nc(N/N=C/C=C/c2ccc([N+](=O)[O-])cc2)nc2c1ncn2[C@@H]1O[C@H](CO)[C@@H](O)[C@H]1O	=	6.28
CCCCCCC#Cc1nc(N)c2ncn([C@@H]3O[C@H](CO)[C@@H](O)[C@H]3O)c2n1	=	6.93
CC(Cc1ccccc1)Nc1nc(Nc2ccccc2)nc2c1ncn2C1O[C@H](CO)[C@@H](O)[C@H]1O (stereo not given in full)	=	6.82
Cn1c(=O)c2cc(-c3ccccc3)[nH]c2n(C)c1=O	=	5.51
Cc1[nH]c2nc(-c3ccccc3Cl)nc(N)c2c1C	=	5.29
CCCCn1c(=O)c2[nH]cnc2n(CCCC)c1=O	=	6.30
OC[C@H]1OC(n2cnc3c(NCc4c5ccccc5cc5ccccc45)ncnc32)[C@H](O)[C@@H]1O (stereo not given in full)	=	5.05
C[C@@H](c1ccccc1)n1c2ccccc2c2c(O)nc(-c3ccccc3)nc21	<	4.52
Nc1nc([N+](=O)[O-])nc2c1ncn2[C@@H]1O[C@H](CO)[C@@H](O)[C@H]1O	=	6.46
Nc1nc(OCCc2ccccc2)nc2c1ncn2[C@@H]1O[C@H](CO)[C@@H](O)[C@H]1O	=	6.89

---

Hi, quick share: literature Ki data for UniProt:P25099, several sources combined.
TARGET OR TEST SYSTEM: UniProt:P25099
Sequence (P25099 whole entry): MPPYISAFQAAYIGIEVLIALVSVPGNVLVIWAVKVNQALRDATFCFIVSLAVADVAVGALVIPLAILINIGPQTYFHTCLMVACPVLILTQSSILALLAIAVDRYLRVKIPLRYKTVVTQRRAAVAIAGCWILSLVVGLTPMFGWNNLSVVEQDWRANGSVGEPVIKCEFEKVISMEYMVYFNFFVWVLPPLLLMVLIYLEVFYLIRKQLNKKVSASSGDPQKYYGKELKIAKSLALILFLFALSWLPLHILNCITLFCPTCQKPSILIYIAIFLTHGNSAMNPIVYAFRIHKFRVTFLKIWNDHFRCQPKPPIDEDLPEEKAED
METRIC NAME: Ki (nM)

> print(dat)
                                    compound  target.or.test.system  metric.name  censoring.operator  meas.value
 1       Cn1ccc2cc3c(cc21)CCN3C(=O)Nc1cccnc1         UniProt:P25099           Ki                   >       50100
 2              CCCn1c(=O)[nH]c2cc[nH]c2c1=O         UniProt:P25099           Ki                   =        1700
 3  C[C@H](c1ccccc1)n1c2c(c3c(N)nc(-c4cc[n+]([O-])cc4)nc31)CCCC2         UniProt:P25099           Ki                   =        1850
 4  O=[N+]([O-])c1cc(NCc2cccc(I)c2)c2ncn([C@@H]3O[C@H](CO)[C@@H](O)[C@H]3O)c2n1         UniProt:P25099           Ki                   =         110
 5  CN(C)C(=O)c1cccc(-c2cn3nc(-c4ccco4)nc3c(N)n2)c1         UniProt:P25099           Ki                   =         120
 6              CCn1c(=O)c2nc[nH]c2n(CC)c1=O         UniProt:P25099           Ki                   =        3300
 7  C[C@H](Cc1ccccc1)Nc1[nH]c2ccccc2c2ncnc1-2         UniProt:P25099           Ki                   =         310
 8  CCCn1c(=O)c2c(nc(Cc3ccccc3)n2C)n(Cc2ccco2)c1=O         UniProt:P25099           Ki                   =        26.9
 9  Nc1cc(Cl)nc2c1ncn2[C@H]1C[C@H](O)[C@@H](CO)O1         UniProt:P25099           Ki                   =       29000
10  CCCCn1c(=O)c2c(nc3n2CCCN3c2ccc(OCCN(C)C)cc2)n(CCCC)c1=O         UniProt:P25099           Ki                   =          56
11              Cn1cnc2c(NC3CCCC3)nc(Cl)nc21         UniProt:P25099           Ki                   =         530
12  Nc1nc(NC[C@H]2CCCN2Cc2ccco2)nc2nc(-c3ccco3)nn12         UniProt:P25099           Ki                   >         250
13  C[C@H](C(=O)Nc1nc2ccc(Cl)cc2c2nc(-c3ccco3)nn12)c1ccccc1         UniProt:P25099           Ki                   =        46.2
14             C=CCn1c(=O)c2c(ncn2C)n(C)c1=O         UniProt:P25099           Ki                   =       47000
15  CC1CCCC(C)N1Nc1nc(Cl)nc2c1ncn2[C@@H]1O[C@H](CO)[C@@H](O)[C@H]1O (stereo not given in full)         UniProt:P25099           Ki                   =           4

---

Compiled Ki measurements on Adenosine receptor A1 (Rattus norvegicus) taken from the literature.
METRIC NAME: Ki

> print(dat)
                                    compound  metric.name  meas.value
 1  O=C(Nc1nc(-c2ccccc2)nc2c1nnn2Cc1ccccc1)c1ccccc1Cl           Ki      141 nM
 2  CCCCCn1c(=O)c2[nH]c(Cc3ccccc3)nc2n(Cc2ccco2)c1=O           Ki      871 nM
 3  CNC(=O)[C@H]1OC(n2cnc3c(NCC(c4cc(OC)cc(OC)c4)c4ccccc4C)ncnc32)[C@H](O)[C@@H]1O (stereo partly specified)           Ki     1010 nM
 4  CCNC(=O)[C@H]1OC(n2cnc3c(N)nc(C#Cc4cccc5ccccc45)nc32)[C@H](O)[C@@H]1O (stereo partly specified)           Ki     4460 nM
 5             Nc1ncnc2c1c1ccccc1n2-c1ccccc1           Ki     1950 nM
 6  Cn1c(=O)c2[nH]c(-c3cccc4ccccc34)cc2n(C)c1=O           Ki  > 30000 nM
 7  CCCCC#Cc1nc(N)c2ncn([C@@H]3O[C@H](CO)[C@@H](O)[C@H]3O)c2n1           Ki       98 nM
 8  Nc1nc(NC[C@H]2CCCN2Cc2ccc(Cl)cc2)nc2nc(-c3ccco3)nn12           Ki    > 250 nM
 9  CCCCCC(O)C#Cc1nc(N)c2ncn(C3O[C@H](CO)[C@@H](O)[C@H]3O)c2n1 (stereo partly specified)           Ki       11 nM
10  CCCCCC(=O)Nc1nc(N(C)C)nc2nc(-c3ccco3)nn12           Ki     1570 nM
11  NCCCC(=O)Nc1nc2ccc(Cl)cc2c2nc(-c3ccco3)nn12           Ki     8.75 nM
12  OC[C@H]1OC(n2cnc3c(NCCCC(c4ccccc4)c4ccccc4)ncnc32)[C@H](O)[C@@H]1O (stereo partly specified)           Ki      290 nM
13  OC[C@H]1O[C@@H](n2cnc3c(NCC4CCCCc5ccccc54)ncnc32)[C@H](O)[C@@H]1O (stereo partly specified)           Ki      118 nM
14  CCOC(=O)c1sc(SC)c2c1CCCC2O (stereo unspecified)           Ki    18300 nM
15          C=CCn1c(=O)c2c(ncn2C)n(CC=C)c1=O           Ki    18000 nM
16  Nc1nc(NC[C@H]2CCCN2Cc2ccnc(Cl)c2)nc2nc(-c3ccco3)nn12           Ki    > 250 nM
17  Nc1nc(-c2ccncc2)nc2c1c1c(n2-c2ccccc2)CCCC1           Ki      600 nM
18  CCC(CO)Nc1nc(-c2ccc(Cl)cc2)nc2c1c(C)c(C)n2[C@H](C)c1ccccc1 (stereo partly specified)           Ki     2600 nM
19  Cn1c(=O)c2c(nc3n2CCCN3Cc2ccccc2Cl)n(C)c1=O           Ki   > 2500 nM
20  Nc1nc(-c2cccc(C(=O)N3CCOCC3)c2)cn2nc(-c3ccco3)nc12           Ki    < 250 nM
21         O=C(Nc1ccccc1)Nc1nc(-c2ccccc2)ns1           Ki     1000 nM
22  Cn1c(=O)c2c(nc3n2CCCN3CCCc2ccccc2)n(C)c1=O           Ki     1990 nM
23  Nc1nc(N2CCN3C[C@@H](CNCc4cccnc4)CC[C@H]3C2)nc2nc(-c3ccco3)nn12           Ki    > 500 nM
24  COc1cc2c(cc1OC)CC(Nc1ncnc3c1ncn3[C@@H]1O[C@H](CO)[C@@H](O)[C@H]1O)C2           Ki     4.98 nM
25                   Nc1ncnc2c1ncn2-c1ccccc1           Ki    19000 nM
26  CCCn1c(=O)c2c(nc3n2CCCN3CCc2ccc(OCC(=O)NCc3cccc(OC)c3)cc2)n(CCC)c1=O           Ki  > 10000 nM
27  C[C@@H](Cc1ccccc1)n1c2ccccc2c2c(N)nc(-c3ccccc3)nc21           Ki      320 nM
28  CCCN1C(=O)N2C[C@H](CC)N=C2c2[nH]c(C34CCC(C(=O)O)(CC3)CC4)nc21           Ki    > 250 nM
29  Nc1nc(N2CCN(CCCc3ccccc3)CC2)nc2nc(-c3ccco3)nn12           Ki    > 500 nM
30  Cc1c(C)n([C@@H](C)c2ccccc2)c2nc(-c3ccccc3Cl)nc(N)c12           Ki      273 nM
31  Nc1nc(N2CCN(Cc3c(F)cc(F)cc3F)CC2)nc2nc(-c3ccco3)nn12           Ki   > 1300 nM
